System: Bacillus subtilis
experiment: cleaved RNA product abundance (RNA/gDNA barcode ratio) relative to median wild-type variant (ratio to wild type); higher = more accumulation of the downstream cleavage product
condition.set: experiment (reporter, strain, medium): exp 8a: truncated aprE reporter, strain BJT201 with 2% xylose (RNase J1 expressed); cleavage site: glnRA (positions -5 to +31 mutated)
cleaved RNA product abundance overview
Give your answer as a number; write no unit.

sequence.data | endpoint.value
CGACATGTCCCGCTTCTTTCATTATTCCGTTAGCAACTGTTTTGCTATATACATTTACTTTTTAAGAGGAGGAAT | 1.96

Query: Which cleaved RNA product abundance value is on record for CGACATGTCCCGCTTCTTTCATTACTCCGTTAGCAACTCTTTTGCTATATACATTTACCTTTTAAGAGGAGGAAT ?
Response: 1.33

Query: Proceed to CGACATGTCCCGCTTCTTTCATTAATCCGTTACCAACTGTTTTGCTACATACATTTACCTTTTAAGAGGAGGAAT
Response: 0.326

Query: Proceed to CGACATGTCCCGCTTCTTTCATTATTCCGTTAGCAACTGTTTTGGTATATACATTTACCTTTTAAGAGGAGGAAT
Response: 0.304

Query: Proceed to CGACATGTCCCGCTTCTTTCATTAATCCGTTAGCAACTTTTTTGCTATATACATTTTCCTTTTAAGAGGAGGAAT
Response: 0.343

Query: Proceed to CGACATGTCCCGCTTCTTTCATTAATCCGTTAGCATCTGTTTTGCTATATACATTTACGTTTTAAGAGGAGGAAT
Response: 0.589

---

System: Bacillus subtilis
experiment: cleaved RNA product abundance (RNA/gDNA barcode ratio) relative to median wild-type variant (ratio to wild type); higher = more accumulation of the downstream cleavage product
condition.set: experiment (reporter, strain, medium): exp 4a: truncated aprE reporter, strain BJT201 with 2% xylose (RNase J1 expressed); cleavage site: cggR-gapA (positions -7 to +36 mutated)
cleaved RNA product abundance overview

Query: Which cleaved RNA product abundance value is on record for ACAGACGAAGGAGCCGCATAGAAGTTATTAATGGATGAATAATCCCTCAATATAAATATCTCTCACTTATTTAAA ?
Response: 0.214

Query: Proceed to ACAGACGAAGGAGCCGCAAAGAAGTTATTAAGCGATGAATAATCCCTTAATATAAATATCTCTCACTTATTTAAA
Response: 0.301

Query: Proceed to ACAGACGAAGGAGCCGCAAAGAATTTATTAAGCGATGAATAATCCCTCAATATAAATATCTCTCACTTATTTAAA
Response: 0.122

Query: Proceed to ACAGACGAAGGAGCCGCAAAGAAGTTATTAATGGATGAATAATCCTTCAATATAAATATCTCTCACTTATTTAAA
Response: 0.191

Query: Proceed to ACAGACGAAGGAGCCGCAAAGAAGTTATTAAGGGATGATTAATCCCTGAATATAAATATCTCTCACTTATTTAAA
Response: 0.458

Query: Proceed to ACAGACGAAGGAGCCGCAAAGAAGTTCTTAAGGGATGAATTATCCCTCAATATAAATATCTCTCACTTATTTAAA
Response: 0.126

---

Tested on: Bacillus subtilis
experiment: cleaved RNA product abundance (RNA/gDNA barcode ratio) relative to median wild-type variant (ratio to wild type); higher = more accumulation of the downstream cleavage product
condition.set: experiment (reporter, strain, medium): exp 4a: truncated aprE reporter, strain BJT201 with 2% xylose (RNase J1 expressed); cleavage site: cggR-gapA (positions -7 to +36 mutated)
cleaved RNA product abundance overview

sequence.data | cleaved RNA product abundance
ACAGACGAAGGAGCCGCAAAGAAGTTATTAAGCGATGAATAATCCCCCAATATAAATATCTCTCACTTATTTAAA | 0.13
ACAGACGAAGGAGCCGCAAAGAAGTTATTAAGGGAGAAATAATCCCTCAATATAAATATCTCTCACTTATTTAAA | 0.795

Next sequence, cleaved RNA product abundance to be filled in.
Query: Which cleaved RNA product abundance value is on record for ACAGACGAAGGAGCCGCAAAGAAGTTATTAACGGATGAATATTCCCTCAATATAAATATCTCTCACTTATTTAAA ?
Response: 0.138

---

Test system: Bacillus subtilis
experiment: cleaved RNA product abundance (RNA/gDNA barcode ratio) relative to median wild-type variant (ratio to wild type); higher = more accumulation of the downstream cleavage product
condition.set: experiment (reporter, strain, medium): exp 8a: truncated aprE reporter, strain BJT201 with 2% xylose (RNase J1 expressed); cleavage site: glnRA (positions -5 to +31 mutated)
cleaved RNA product abundance overview
Give your answer as a number; write no unit.

sequence.data | cleaved RNA product abundance
CGACATGTCCCGCTTCTTTCATTAATCCGAAAGCAACTGTTTTGCTATATACATTTACCTTTTAAGAGGAGGAAT | 0.39
CGACATGTCCCGCTTCTTTCATTAATCCGTTATTAACTGTTTTACTATATACATTTACCTTTTAAGAGGAGGAAT | 0.408
CGACATGTCCCGCTTCTTTCATTAATCCGTTAGCTACTGTTATGCTATATACATTTACCTTTTAAGAGGAGGAAT | 0.786

Next sequence, cleaved RNA product abundance to be filled in.
Query: Which cleaved RNA product abundance value is on record for CGACATGTCCCGCTTCTTTCATTAATCAGGTAGCAACTGTTTTGCTATATACATTTACCTTTTAAGAGGAGGAAT ?
Response: 0.783

---

System: Bacillus subtilis
experiment: cleaved RNA product abundance (RNA/gDNA barcode ratio) relative to median wild-type variant (ratio to wild type); higher = more accumulation of the downstream cleavage product
condition.set: experiment (reporter, strain, medium): exp 8a: truncated aprE reporter, strain BJT201 with 2% xylose (RNase J1 expressed); cleavage site: glnRA (positions -5 to +31 mutated)
Lab note: anything with cleaved RNA product abundance at or over 0.4 counts as condition met; the rest go in condition not met.

sequence.data | qualitative.label
CGACATGTCCCGCTTCTTTCATTATTCCGTTAGCAACTGTTTTGCTATATACATTAACATTTTAAGAGGAGGAAT | condition met

Query: Hi team, for CGACATGTCCCGCTTCTTTCATTAATCCGTTAGCAACTGTTTTGCTATCTAAATTTACCTTTTAAGAGGAGGAAT , is the recorded cleaved RNA product abundance at or above 0.4?
Response: condition not met

Query: Proceed to CGACATGTCCCGCTTCTTTCATTAATCCGTTATCAACTGTTTTCCTATATACATTTACCTTTTAAGAGGAGGAAT
Response: condition not met

Query: Proceed to CGACATGTCCCGCTTCTTTCATTAATCCGTTAGGAACTGTTTTGCGATATACATTTACCTTTTAAGAGGAGGAAT
Response: condition not met

Query: Proceed to CGACATGTCCCGCTTCTTTCATTAATACGTTAGCAACTGTTTTGCTATATACATTTATCTTTTAAGAGGAGGAAT
Response: condition met

Query: Proceed to CGACATGTCCCGCTTCTTTCATTAATCCGTTAGCAACTGTTTTGGTATATATATTTACCTTTTAAGAGGAGGAAT
Response: condition not met

---

cleaved RNA product abundance overview
Tested on: Bacillus subtilis
experiment: cleaved RNA product abundance (RNA/gDNA barcode ratio) relative to median wild-type variant (ratio to wild type); higher = more accumulation of the downstream cleavage product
condition.set: experiment (reporter, strain, medium): exp 2b: truncated aprE reporter, strain BJT200; cleavage site: cggR-gapA (positions -7 to +36 mutated)
Give your answer as a number; write no unit.

sequence.data | metric | endpoint.value
ACAGACGAAGGAGCCGCAAAGAAGTTATTAAGGGATGAATAATCCCCAAATATAAATATCTCTCACTTATTTAAA | cleaved RNA product abundance | 0.336
ACAGACGAAGGAGCCGCAAAGAGGTTATTAAGGGATGAATAATCCCTCAATATAAATATCTCTCACTTATTTAAA | cleaved RNA product abundance | 0.814
ACAGACGAAGGAGCCGCAAAGTAGTTATTAAGGGATGAATAATCCATCAATATAAATATCTCTCACTTATTTAAA | cleaved RNA product abundance | 0.187
ACAGACGAAGGAGCCGCAAAGAAGTTATTAAGTGATGAATAATCTCTCAATATAAATATCTCTCACTTATTTAAA | cleaved RNA product abundance | 0.113
ACAGACGAAGGAGCCGCAAAGAAGTTATTAAGGGATGAATAATCCTTCAATATAAACATCTCTCACTTATTTAAA | cleaved RNA product abundance | 0.415

Query: Which cleaved RNA product abundance value is on record for ACAGACGAAGGAGCCGCAAAGAAGTTATGAAGGGATGAATTATCCCTCAATATAAATATCTCTCACTTATTTAAA ?
Response: 0.232
